Origin of values: paper PMC10144058

# System: SW620 cells
# protocol description: Cell viability, sulforhodamine B (SRB) assay
# Format: cell-based, human
# applied conditions: 48 h
reported metric: IC50 (µM)
Report the figure in µM without appending any unit label.

stdin: Please look up its IC50: `COc1cc(/C=C/C(=O)c2ccc(OCCCCCCn3cc(Cn4cc(F)c(=O)[nH]c4=O)nn3)cc2)ccc1O`
stdout: 14.5

====

reported metric: melting point

Answered examples (3):
COc1cc(/C=C/C(=O)c2ccc(OCCCCCCCCCn3cc(Cn4cc(F)c(=O)[nH]c4=O)nn3)cc2)ccc1O: 113 to 120 °C
COc1cc(/C=C/C(=O)c2ccc(OCCCCCCCCn3cc(Cn4cc(F)c(=O)[nH]c4=O)nn3)cc2)ccc1O: 98 to 102 °C
COc1cc(/C=C/C(=O)c2ccc(OCCCCCCCCCCCCn3cc(Cn4cc(F)c(=O)[nH]c4=O)nn3)cc2)ccc1O: 129 to 135 °C

stdin: Need melting point, item `COc1cc(/C=C/C(=O)c2ccc(OCCCCn3cc(Cn4cc(F)c(=O)[nH]c4=O)nn3)cc2)ccc1O`
stdout: 61 to 65 °C

stdin: Similarly, `COc1cc(/C=C/C(=O)c2ccc(OCCCn3cc(Cn4cc(F)c(=O)[nH]c4=O)nn3)cc2)ccc1O` ?
stdout: 124 to 129 °C

====

# System: HaCaT cells
# protocol description: Cell viability, sulforhodamine B (SRB) assay, non-malignant cells
# Type: cell-based
# applied conditions: Homo sapiens, 24 h
reported metric: IC50

Example molecules with recorded IC50:
COc1cc(/C=C/C(=O)c2ccc(OCCCCCCCCCCCCn3cc(Cn4cc(F)c(=O)[nH]c4=O)nn3)cc2)ccc1O: > 100 µM
COc1cc(/C=C/C(=O)c2ccc(OCCCn3cc(Cn4cc(F)c(=O)[nH]c4=O)nn3)cc2)ccc1O: 58.1 µM
COc1cc(/C=C/C(=O)c2ccc(OCCCCCn3cc(Cn4cc(F)c(=O)[nH]c4=O)nn3)cc2)ccc1O: 42.6 µM
COc1cc(/C=C/C(=O)c2ccc(OCCCCCCCCCn3cc(Cn4cc(F)c(=O)[nH]c4=O)nn3)cc2)ccc1O: > 100 µM
COc1cc(/C=C/C(=O)c2ccc(OCCCCCCCCn3cc(Cn4cc(F)c(=O)[nH]c4=O)nn3)cc2)ccc1O: > 100 µM

stdin: Find the recorded IC50 belonging to `COc1cc(/C=C/C(=O)CC(=O)/C=C/c2ccc(O)c(OC)c2)ccc1O` and report it.
stdout: > 100 µM

stdin: Quick one: `COc1cc(/C=C/C(=O)c2ccc(OCCCCCCn3cc(Cn4cc(F)c(=O)[nH]c4=O)nn3)cc2)ccc1O`
stdout: 76.9 µM

stdin: Then this molecule: `COc1cc(/C=C/C(=O)c2ccc(OCCn3cc(Cn4cc(F)c(=O)[nH]c4=O)nn3)cc2)ccc1O`
stdout: 71.8 µM

stdin: # iterate: O=c1[nH]cc(F)c(=O)[nH]1 [Compound 5-FU, 5-fluorouracil, reference compound]
stdout: > 1000 µM

stdin: And for `COc1cc(/C=C/C(=O)c2ccc(OCCCCn3cc(Cn4cc(F)c(=O)[nH]c4=O)nn3)cc2)ccc1O` ?
stdout: 45.4 µM
